Experimental protocol: Stability of compound at 60 degC and 75% relative humidity assessed parent compound remaining measured 1 week using crystalline form of sample by chromatographic method
Format: physicochemical
Cond: solid sample, time 1 weeks, read-out: Stabilty
Experimental endpoint: remaining at 168 h (%)

C[C@@H]1Cc2c(ccc3[nH]ncc23)[C@@H](c2ccc(NC3CN(CCCF)C3)cn2)N1CC(F)(F)F    99.5

###

Experimental protocol: Stability of compound at 60 degC and 75% relative humidity assessed parent compound remaining measured 1 week using amorphous form of sample by chromatographic method
Assay type: physicochemical
Cond: solid sample, time 1 weeks, read-out: Stabilty
Experimental endpoint: remaining at 168 h

C[C@@H]1Cc2c(ccc3[nH]ncc23)[C@@H](c2ccc(NC3CN(CCCF)C3)cn2)N1CC(F)(F)F [CAMIZESTRANT]    82.4%

###

Reported pIC50 values follow for various molecules
Experimental target: Voltage-gated inwardly rectifying potassium channel KCNH2 (Homo sapiens, UniProt Q12809)
Sequence (Q12809 whole entry): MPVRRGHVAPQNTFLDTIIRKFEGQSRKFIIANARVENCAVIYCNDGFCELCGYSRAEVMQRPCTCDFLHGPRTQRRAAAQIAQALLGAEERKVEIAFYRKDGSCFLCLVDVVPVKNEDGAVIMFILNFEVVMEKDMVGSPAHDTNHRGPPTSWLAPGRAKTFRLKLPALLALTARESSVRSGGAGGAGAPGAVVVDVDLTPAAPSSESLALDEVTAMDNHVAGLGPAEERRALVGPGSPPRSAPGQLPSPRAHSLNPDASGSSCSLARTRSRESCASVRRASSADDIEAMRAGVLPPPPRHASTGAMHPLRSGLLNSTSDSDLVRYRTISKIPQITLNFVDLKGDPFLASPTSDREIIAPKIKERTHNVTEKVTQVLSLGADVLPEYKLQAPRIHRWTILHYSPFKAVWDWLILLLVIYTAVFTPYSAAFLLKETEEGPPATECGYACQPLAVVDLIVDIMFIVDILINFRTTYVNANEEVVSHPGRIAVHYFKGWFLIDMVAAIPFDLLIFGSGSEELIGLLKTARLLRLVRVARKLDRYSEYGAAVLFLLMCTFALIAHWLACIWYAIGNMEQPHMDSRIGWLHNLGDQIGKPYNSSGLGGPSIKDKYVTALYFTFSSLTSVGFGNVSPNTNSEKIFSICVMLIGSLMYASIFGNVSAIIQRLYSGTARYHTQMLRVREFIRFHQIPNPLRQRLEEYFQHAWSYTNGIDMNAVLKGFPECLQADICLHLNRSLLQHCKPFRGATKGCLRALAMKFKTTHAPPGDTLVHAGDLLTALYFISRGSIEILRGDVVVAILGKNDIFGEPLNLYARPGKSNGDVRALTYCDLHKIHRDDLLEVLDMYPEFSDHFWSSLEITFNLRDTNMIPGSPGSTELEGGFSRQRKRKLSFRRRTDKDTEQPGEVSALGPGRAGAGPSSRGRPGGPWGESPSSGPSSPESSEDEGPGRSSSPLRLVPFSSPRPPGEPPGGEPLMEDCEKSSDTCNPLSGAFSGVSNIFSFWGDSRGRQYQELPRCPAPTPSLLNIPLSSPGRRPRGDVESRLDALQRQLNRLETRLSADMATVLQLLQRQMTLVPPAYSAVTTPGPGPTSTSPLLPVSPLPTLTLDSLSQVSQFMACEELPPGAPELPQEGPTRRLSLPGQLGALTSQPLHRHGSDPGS
Experimental protocol: Inhibition of human ERG by plate-based planar patch clamp technique
pIC50: −log10 of the molar value.
Experimental endpoint: pIC50

C[C@@H]1Cc2c(ccc3[nH]ncc23)[C@@](C)(c2ccc(NC3CN(CCCF)C3)cn2)N1CC(F)F    4.89
C[C@@H]1Cc2c(ccc3[nH]ncc23)[C@@H](c2ccc(N[C@H]3CCN(CCCF)C3)cn2)N1CC(F)(F)F    4.89

###

Reported fraction unbound values follow for various compounds
Experimental protocol: Fraction unbound in human plasma by equilibrium dialysis method
Format: ADME, cell-free
Experimental endpoint: fraction unbound

C[C@@H]1Cc2c(ccc3[nH]ncc23)[C@@H](c2ccc(N(C)[C@H]3CCN(CCCF)C3)cn2)N1CC(F)(F)F    0.057
C[C@@H]1Cc2c(ccc3[nH]ncc23)[C@@H](c2ccc(NC3CN(CCCF)C3)cn2)N1CC(F)F    0.4
C[C@@H]1Cc2c(ccc3[nH]ncc23)[C@@H](c2ccc(O[C@H]3CCN(CCCF)C3)cn2)N1CC(F)(F)F    0.15
C[C@@H]1Cc2c(ccc3[nH]ncc23)[C@@H](c2ccc(NC3CN(CCCF)C3)cn2)N1CC(C)(C)F    0.1
C[C@@H]1Cc2c(ccc3[nH]ncc23)[C@@H](c2ccc(NC3CN(CCCF)C3)cn2)N1CC1(F)CC1    0.26
C[C@@H]1Cc2c(ccc3[nH]ncc23)[C@@H](c2ccc(NC3CN(CCCF)C3)cn2)N1CC(C)(F)F    0.24
C[C@@H]1Cc2c(ccc3[nH]ncc23)[C@@H](c2ccc(OCCN3CC(CF)C3)cn2)N1CC1(F)CC1    0.34
CC(C)CN1[C@H](c2ccc(OCCN3CC(CF)C3)cn2)c2ccc3[nH]ncc3c2C[C@H]1C    0.19
COc1cc(OCCN2CC(CF)C2)ccc1[C@@H]1c2ccc3[nH]ncc3c2C[C@@H](C)N1CC1(F)COC1    0.25
C[C@@H]1Cc2c(ccc3[nH]ncc23)[C@@H](c2ccc(NC3CN(CCCF)C3)cn2)N1CC(F)(F)F    0.23
CC1(C)Cc2c(ccc3[nH]ncc23)[C@@H](c2ccc(NC3CN(CCCF)C3)cn2)N1CC(F)(F)F    0.14
COc1cc(NC2CN(CCCF)C2)ccc1[C@@H]1c2ccc3[nH]ncc3c2C[C@@H](C)N1CC1(F)CC1    0.34
COc1cc(OCCNCCCF)ccc1[C@@H]1c2ccc3[nH]ncc3c2C[C@@H](C)N1CC1(F)CC1    0.18
COc1cc(NC2CN(CCCF)C2)ccc1[C@@H]1c2ccc3[nH]ncc3c2C[C@@H](C)N1CC(F)F    0.12
C[C@@H]1Cc2c(ccc3[nH]ncc23)[C@@H](c2ccc(NCCNCCCF)cn2)N1CC(F)(F)F    0.16
C[C@@H]1Cc2c(ccc3[nH]ncc23)[C@@H](c2c(F)cc(OCCN3CC(CF)C3)cc2F)N1CC(C)(C)F    0.008
COc1cc(NC2CN(CCCF)C2)ccc1[C@@H]1c2ccc3[nH]ncc3c2C[C@@H](C)N1CC(C)(C)F    0.14
C[C@@H]1Cc2c(ccc3[nH]ncc23)[C@@H](c2ccc(OCCN3CC(CF)C3)cn2)N1CC(F)(F)F    0.22
C[C@@H]1Cc2c(ccc3[nH]ncc23)[C@@H](c2ccc(NC3CN(CCCF)C3)cn2)N1CC(F)(F)CO    0.64
COc1cc(NC2CN(CCCF)C2)ccc1[C@@H]1c2ccc3[nH]ncc3c2C[C@@H](C)N1CC(C)(F)F    0.043
CC(C)CN1[C@H](c2ccc(OCCN3CC(CF)C3)cc2)c2ccc3[nH]ncc3c2C[C@H]1C    0.11
CC(C)CN1[C@H](c2c(F)cc(OCCN3CC(CF)C3)cc2F)c2ccc3[nH]ncc3c2C[C@H]1C    0.004
COc1cc(NC2CN(CCCF)C2)ccc1[C@@H]1c2ccc3[nH]ncc3c2C[C@@H](C)N1CC(F)(F)F    0.06
C[C@@H]1Cc2c(ccc3[nH]ncc23)[C@@H](c2ccc(OCCN3CC(CF)C3)cn2)N1CC(F)F    0.49
COc1cc(OCCN2CC(CF)C2)ccc1[C@@H]1c2ccc3[nH]ncc3c2C[C@@H](C)N1CC(C)(C)F    0.065
C[C@@H]1Cc2c(ccc3[nH]ncc23)[C@@](C)(c2ccc(NC3CN(CCCF)C3)cn2)N1CC(F)F    0.1
C[C@@H]1Cc2c(ccc3[nH]ccc23)[C@@H](c2ccc(NC3CN(CCCF)C3)cn2)N1CC(F)(F)F    0.073
COc1cc(OC2CN(CCCF)C2)ccc1[C@@H]1c2ccc3[nH]ncc3c2C[C@@H](C)N1CC1(F)CC1    0.11
C[C@@H]1Cc2c(ccc3[nH]ncc23)[C@@H](c2ccc(N(C)C3CN(CCCF)C3)cn2)N1CC(F)(F)F    0.15
C[C@@H]1Cc2c(ccc3[nH]ncc23)[C@@H](c2ccc(N[C@H]3CCN(CCCF)C3)cn2)N1CC(F)(F)F    0.18
COc1cc(NC2CN(CCCF)C2)ccc1[C@@H]1c2ccc3[nH]ncc3c2C[C@@H](C)N1CC(F)(F)CO    0.23
COc1cc(OCCN2CC(CF)C2)ccc1[C@@H]1c2ccc3[nH]ncc3c2C[C@@H](C)N1CC(C)C    0.52
COc1cc(OCCN2CC(CF)C2)ccc1[C@@H]1c2ccc3[nH]ncc3c2C[C@@H](C)N1CC1(F)CC1    0.21
CC1(C)Cc2c(ccc3[nH]ncc23)[C@@H](c2ccc(NC3CN(CCCF)C3)cn2)N1CC(F)F    0.22
